- TARGET_UNDER_TEST: HCV NS3-NS4A protease (Hepatitis C virus genotype 1a, UniProt P27958)
- Construct: The buffer, KK4A, DTT, and tNS3 were combined
- Sequence (P27958 1658-1711): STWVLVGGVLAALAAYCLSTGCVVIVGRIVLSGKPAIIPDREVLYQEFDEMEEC
- Sequence (P27958 1027-1208): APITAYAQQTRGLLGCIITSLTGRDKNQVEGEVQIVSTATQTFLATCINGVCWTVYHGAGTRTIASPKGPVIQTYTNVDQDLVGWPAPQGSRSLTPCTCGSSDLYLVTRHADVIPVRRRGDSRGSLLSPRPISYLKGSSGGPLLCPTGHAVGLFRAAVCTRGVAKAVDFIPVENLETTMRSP
- TEST_SUMMARY: HCV Ki Assay (enzyme, Example 5)
- MEASUREMENT_SETUP: Ki values, tested according to Example 5 (enzyme); 5AB substrate, tNS3 with KK4A
Catalogue of compounds with associated Ki

Answered examples (6):
[[record]]
compound = "CCCC(NC(=O)[C@@H]1C[C@@H](Oc2ccccc2)CN1C(=O)[C@@H](NC(=O)[C@@H](NC(=O)c1cnccn1)C1CCCCC1)C(C)(C)C)C(=O)C(=O)NC1CC1 (stereo partly drawn)"
target_under_test = "HCV NS3-NS4A protease (Hepatitis C virus genotype 1a, UniProt P27958)"
assay_readout = "Ki"
result = "100 to 300 nM"

[[record]]
compound = "CCC[C@H](NC(=O)[C@@H]1C[C@@H](Oc2cccc3ccccc23)CN1C(=O)[C@@H](NC(=O)[C@@H](NC(=O)c1ncc[nH]1)C1CCCCC1)C(C)(C)C)C(=O)C(=O)NC1CC1"
target_under_test = "HCV NS3-NS4A protease (Hepatitis C virus genotype 1a, UniProt P27958)"
assay_readout = "Ki"
result = "< 100 nM"

[[record]]
compound = "CCCC(NC(=O)C1CC(Oc2cccc(Cl)c2Cl)CN1C(=O)C(NC(=O)C(NC(=O)c1cnccn1)C1CCCCC1)C(C)(C)C)C(=O)C(=O)NC1CC1 (stereo not drawn)"
target_under_test = "HCV NS3-NS4A protease (Hepatitis C virus genotype 1a, UniProt P27958)"
assay_readout = "Ki"
result = "100 to 300 nM"

[[record]]
compound = "CCC[C@H](NC(=O)[C@@H]1C[C@@H](Oc2cccc(OC)c2OC)CN1C(=O)[C@@H](NC(=O)[C@@H](NC(=O)c1cnccn1)C1CCCCC1)C(C)(C)C)C(=O)C(=O)NC1CC1"
target_under_test = "HCV NS3-NS4A protease (Hepatitis C virus genotype 1a, UniProt P27958)"
assay_readout = "Ki"
result = "100 to 300 nM"

[[record]]
compound = "CCCC(NC(=O)[C@H]1C[C@H](Oc2ncncc2F)CN1C(=O)C(NC(=O)C(NC(=O)c1cnccn1)C1CCCCC1)C(C)(C)C)C(=O)C(=O)NC1CC1 (stereo partly drawn)"
target_under_test = "HCV NS3-NS4A protease (Hepatitis C virus genotype 1a, UniProt P27958)"
assay_readout = "Ki"
result = "< 100 nM"

[[record]]
compound = "CCC[C@H](NC(=O)[C@@H]1C[C@@H](Oc2ncnc3ccccc23)CN1C(=O)[C@@H](NC(=O)[C@@H](NC(=O)c1cnccn1)C1CCCCC1)C(C)(C)C)C(=O)C(=O)NC1CC1"
target_under_test = "HCV NS3-NS4A protease (Hepatitis C virus genotype 1a, UniProt P27958)"
assay_readout = "Ki"
result = "< 100 nM"


Please list Ki recorded for the compound CCC[C@H](NC(=O)[C@@H]1C[C@@H](Oc2cccc(C(=O)NC)c2)CN1C(=O)[C@@H](NC(=O)[C@@H](NC(=O)c1cnccn1)C1CCCCC1)C(C)(C)C)C(=O)C(=O)NC1CC1
< 100 nM

Report measured Ki; entry is CCC[C@H](NC(=O)C1C[C@@H](Oc2cccc(F)c2F)CN1C(=O)[C@@H](NC(=O)[C@@H](NC(=O)c1cnccn1)C1CCCCC1)C(C)(C)C)C(=O)C(=O)NC1CC1 (stereo partly drawn)
100 to 300 nM

Provide Ki value for the following compound: CCC[C@H](NC(=O)[C@@H]1C[C@@H](Oc2cccc(OC)c2)CN1C(=O)[C@@H](NC(=O)[C@@H](NC(=O)c1cnccn1)C1CCCCC1)C(C)(C)C)C(=O)C(=O)NC1CC1
> 300 nM
